Can you tell me herbicidal action ECHCG for the items I'm about to list?
Tested on: Echinochloa crus-galli
test summary: Pre-emergence herbicidal action, ECHCG
Format: in vivo
cond: dosage 320 g/ha

Some compounds with recorded herbicidal action ECHCG:
compound	herbicidal action ECHCG
COc1c(C(=O)Nc2nnnn2C)ccc(Cl)c1CS(C)(=O)=O	80%
COc1c(C(=O)Nc2nnnn2C)ccc(C(F)(F)F)c1C[S+](C)[O-] (stereo not drawn)	100%

Hi team, please reply with herbicidal action ECHCG for each item in this list.
1. CCS(=O)(=O)Cc1c(C(F)(F)F)ccc(C(=O)Nc2nnnn2C)c1C
2. CSCc1c(S(C)(=O)=O)ccc(C(=O)Nc2nnnn2C)c1Cl
3. CCn1nnnc1NC(=O)c1ccc(C)c(CS(C)(=O)=O)c1Cl
4. CCn1nnnc1NC(=O)c1ccc(S(C)(=O)=O)c(CS(C)(=O)=O)c1Cl

A)
100%
90%
100%
100%

Hi team, please reply with herbicidal action ECHCG for each item in this list.
1. CCCn1nnnc1NC(=O)c1ccc(I)c(C[S+](C)[O-])c1Cl (stereo not drawn)
2. CCn1nnnc1NC(=O)c1ccc(C(F)(F)F)c(CS(=O)(=O)CC)c1C
3. CCSCc1c(C(F)(F)F)ccc(C(=O)Nc2nnnn2CC)c1C

A)
100%
100%
100%

---

System: Pharbitis purpurea
test summary: Pre-emergence herbicidal action, PHBPU
Assay type: in vivo
cond: comparative experiment, 20 g of a.i./ha
readout kind: Herbicidal action against PHBPU
Answers are plain numbers.

Some molecules with recorded Herbicidal action against PHBPU:
molecule	study system	readout kind	reading
CSc1c(C(=O)Nc2nnnn2C)ccc(C(F)(F)F)c1[S+](C)[O-] (centres unmarked) [Example V-1, reference compound]	Pharbitis purpurea	Herbicidal action against PHBPU	0
CSc1c(C(=O)Nc2nnnn2C)ccc(C(F)(F)F)c1C[S+](C)[O-] (centres unmarked)	Pharbitis purpurea	Herbicidal action against PHBPU	60
COc1c(C(=O)Nc2nnnn2C)ccc(C(F)(F)F)c1CSC	Pharbitis purpurea	Herbicidal action against PHBPU	20
CSCc1c(Cl)ccc(C(=O)Nc2nnnn2C)c1C	Pharbitis purpurea	Herbicidal action against PHBPU	40

Next molecule, Herbicidal action against PHBPU to be filled in.
Q) Give the reported value of Herbicidal action against PHBPU for this record: CCSCc1c(C(F)(F)F)ccc(C(=O)Nc2nnnn2C)c1C1CC1
A) 60

---

System: Amaranthus retroflexus
test summary: Post-emergence herbicidal action, AMARE
Type: in vivo
Parameters: key: % herbicidal action vs untreated; 100 = plants died, 0 = like control
cond: comparative experiment, post-emergence, 5 g of a.i./ha
readout kind: Herbicidal action against AMARE
Numbers only.

molecule	reading
CSCc1c(C(F)(F)F)ccc(C(=O)Nc2nnnn2C)c1Cl	60
CSc1c(I)ccc(C(=O)Nc2nnnn2C)c1Cl [Example V-5, reference compound]	70

Next molecule, Herbicidal action against AMARE to be filled in.
Q) Tell me its Herbicidal action against AMARE on Amaranthus retroflexus: CCSc1c(C(=O)Nc2nnnn2C)ccc(C(F)(F)F)c1SCC [Example V-3, reference compound]
A) 0

---

System: Cyperus esculentus
test summary: Pre-emergence herbicidal action, CYPES
Format: in vivo
Design: key: % activity: 100 = plants have died, 0 = like control plants
cond: comparative experiment, 20 g of a.i./ha
readout kind: Herbicidal action against CYPES
Numbers only.

Some molecules with recorded Herbicidal action against CYPES:
molecule	Herbicidal action against CYPES
CSCc1c(I)ccc(C(=O)Nc2nnnn2C)c1Cl	80
CSc1c(C(=O)Nc2nnnn2C)ccc(C(F)(F)F)c1S(C)(=O)=O [Example V-2, reference compound]	0

Hi team, please reply with Herbicidal action against CYPES for each item in this list.
1. CSc1c(I)ccc(C(=O)Nc2nnnn2C)c1Cl [Example V-5, reference compound]
2. CSCc1c(C(F)(F)F)ccc(C(=O)Nc2nnnn2C)c1Br
3. CSc1c(C(=O)Nc2nnnn2C)ccc(C(F)(F)F)c1[S+](C)[O-] (stereo not drawn) [Example V-1, reference compound]
4. CSc1c(C(=O)Nc2nnnn2C)ccc(C(F)(F)F)c1CS(C)(=O)=O

A)
1: 0; 2: 60; 3: 50; 4: 70

Sourced from patent US12492173B2
